Each recorded value in this set is attributed to patent US20150004155A1.

target_desc: T1, purified recombinant RSV-Ga protein (Sino Biologics) (Respiratory Syncytial Virus subtype A, …, UniProt P03423 64-298)
T1 sequence: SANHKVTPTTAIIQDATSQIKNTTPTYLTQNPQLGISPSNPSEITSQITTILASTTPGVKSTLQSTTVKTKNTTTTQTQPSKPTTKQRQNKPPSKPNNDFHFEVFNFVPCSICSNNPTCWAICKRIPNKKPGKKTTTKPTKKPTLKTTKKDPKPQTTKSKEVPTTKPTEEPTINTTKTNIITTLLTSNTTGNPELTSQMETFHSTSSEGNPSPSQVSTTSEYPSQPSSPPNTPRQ
protocol: SPR (IBIS MX96), IgG captured on anti-human IgG, RSV Ga injected
property_label: Kd (nM)

- binder: "AT42 (antibody, V domains shown) VH: QVQLQESGPGLVQPSETLSLTCTVSGDSITSNVYYWGWIRQPPGKGLEWIGSIFHSGITHYTPSLNSRVTISVDTSKNQFSLRLSSATAADTAVYYCARHWAGLYFDSWGQGALVAVSS VL: EIVLTQSPGTLSLSPGERATLSCRASQTVSSSHLAWYQQKPGQAPRLLIHGSSSRATGIPERFSGSGSGPDFTLTISRLKPEDFAVYYCQYYGDSPGSFGEGTKVEIKR"
  property_label: "Kd"
  measured_result: 1.3
